System: K4 kissing-loop RNA reporter;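 note: bound reporter read as fluorescence of individual clusters on recovered sequencing chips by microscopy, with normalized cluster intensities fitted with a binding model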
Assay: apparent KD of K4 kissing-loop reporter; higher = weaker reporter binding
Conditions: Eterna round: R107; input ligand: FMN 200 uM
Record class 1 whenever apparent KD of K4 kissing-loop reporter is at 300 nM or higher; record class 0 when lower.

Completed entries (count: 5):
seq.text | label
GGAUAGGAUAGAGGAUAUGGGCUAGGCAAGAAUAACUUGUCUAGCAAAUCCAUGAGGAGUGAUGUUCCAGAAGGCUAUCCUAUCG [FmnBX 1 U9+A77] | class 1
CAUGUGUCUAUUACGAUGGAUACAUAUACUGAGGAUAUCACAUUUAUGAGAAGGCAGUAAACUGCGAGUGAUGUUCGCAGUACGU [FMN A SS t8] | class 0
AGGAGCGUGCGAUGGAAAUCGCACGCUCCUCGAGGACCGGUACGGCCGCCACUCGCUCGCGCCGAGUGAUGUUCGGCCGGCGAAG [#2 Same State - Tryptophan A Attempt #16 (HarryS)] | class 0
UGACAUUGCUCAGAUACCAGACUUGAGGAUCACCCAAGUGCCAAACGUACAAUAAUAAAAGUCCCUUGGCAGCUGAGCAAUGUCU [TheoBX 14] | class 0
GAAUUAAUGUCUUUAAUAUAAUAAUCAGAUACCAGUGAUUUGUGACACCCUUGGCAGCUGUAUAGAGUGAUGUUCUUAUACAUAA [#12 K4 Theophylline A Exclusion] | class 1

Exercise: Dear colleague, could you confirm whether GUAUACAUAGAUCACCUUGUAGUGAUGUUGCGAGGACCGGUACGGCCGCCACUCGAAGUACGAAAGUACAAAGAUCUAUGUAUAC [Exclusion Trypto A - 1] has apparent KD of K4 kissing-loop reporter at or above 300 nM?
Solution: class 0
